# System: nude mice, LOX melanoma ip, survival T/C
# protocol-details: NCI In Vivo Anticancer Drug Screen. Data for tumor model Human Amelanotic Melanoma (LOX) (intraperitoneal) in NU/NU BALB/C (nude) mice
# condition-parameters: endpoint: median survival time; dose: 150.0 mg/kg/injection; schedule: Q04DX003 (ip); vehicle: saline
# Procedure: The antitumor activity of compounds was measured in mice bearing transplantable tumors. Survival or tumor size were measured and the results are expressed as the measurement made in the treated group (T) divided by the measurement made in the vehicle treated control group (C). The tumor model used in this assay is Human Amelanotic Melanoma (LOX) (intraperitoneal) in NU/NU BALB/C (nude) mice
Toxic doses and inconclusive results are not listed. Rule for the calls: active = survival T/C of 150% or more; inactive = T/C below 125% in these data.
# output must be one of class 1 (active), class 0 (inactive)

Past entries and their recorded results:
{"columns": ["molecule", "measurement-target", "class-assignment"],
 "data": [
  ["OCC(O)C(O)C(O)C(O)CO (stereo not drawn)", "nude mice, LOX melanoma ip, survival T/C", "class 0"],
  ["Nc1ccn([C@@H](C=O)C[C@@H](C=O)CO)c(=O)n1", "nude mice, LOX melanoma ip, survival T/C", "class 0"]
]}

Here is another molecule to look at.
Returns: the outcome recorded for `O=C(Oc1ccccc1)c1cc(O)c(O)c(O)c1` in this assay.
class 1
